- Measurement target: VEGFR2 (purified cytoplasmic domain KDR protein) (Homo sapiens (Human), UniProt P35968)
- Sequence (P35968 786-1356): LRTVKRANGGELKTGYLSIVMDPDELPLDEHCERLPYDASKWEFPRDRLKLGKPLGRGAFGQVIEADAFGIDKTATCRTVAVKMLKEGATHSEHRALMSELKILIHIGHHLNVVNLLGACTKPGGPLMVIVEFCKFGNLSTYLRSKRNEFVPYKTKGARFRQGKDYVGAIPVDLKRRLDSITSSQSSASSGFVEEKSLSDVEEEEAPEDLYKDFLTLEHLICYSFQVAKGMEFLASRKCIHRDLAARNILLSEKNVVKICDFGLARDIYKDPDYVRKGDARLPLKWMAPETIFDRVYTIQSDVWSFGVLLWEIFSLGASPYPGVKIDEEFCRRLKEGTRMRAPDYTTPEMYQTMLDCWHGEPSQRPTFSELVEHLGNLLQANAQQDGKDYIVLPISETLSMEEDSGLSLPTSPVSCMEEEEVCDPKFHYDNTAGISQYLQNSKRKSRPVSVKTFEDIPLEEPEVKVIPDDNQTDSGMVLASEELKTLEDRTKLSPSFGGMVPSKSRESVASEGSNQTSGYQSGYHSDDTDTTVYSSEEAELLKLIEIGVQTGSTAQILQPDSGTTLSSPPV
- Assay details: VEGFR2 Kinase Assay (biochemical KDR kinase assay, ELISA readout)
- Experimental context: 2.7 μM ATP, poly-Glu-Tyr (4:1) substrate, 15 minute incubation at 30° C.
Readout kind: IC50

Chem smiles | Readout kind | Val
NC(=O)/C=C(/c1ccccc1)c1cccc(NC(=O)Nc2cc(C(F)(F)F)ccc2F)c1 | IC50 | > 10000 nM

Data point: `NC(=O)/C=C/c1ccc(NC(=O)Nc2cc(C(F)(F)F)ccc2F)cc1` ; IC50 = > 10000 nM

// sample `NC(=O)/C=C/c1cccc(NC(=O)Nc2cc(C(F)(F)F)ccc2F)c1` , its IC50 was > 10000 nM
